tested on: MDA-MB-231 cells; test: MTS Assay in MDA-MB-231 Cells (cell viability); format: cell-based; conditions: human, 72 h
No end group written: not given here.
readout-name: MTS Assay cell viability, Percent of Control Activity

query-sequence	result
MSLLIQCQSGHLR [compound 2]	90%
MQTVPNKPTGPKLPNLH [compound 17]	85%
MTGWARGLISTGRV [compound 12]	89%
MTCWLIVDIGLLIVSSVF [compound 7]	88%

---

test system: MCF-7 cells; settings: human, 72 h, 10 µM
No end group written: not given here.
Overview of reported MTS Assay cell viability, Percent of Control Activity across a group of sequences:
readout-name: MTS Assay cell viability, Percent of Control Activity (%)

query-sequence	number
MQTVPNKPTGPKLPNLH [compound 17]	68
MTCWLIVDIGLLIVSSVF [compound 7]	52
MSLLIQCQSGHLR [compound 2]	59
MTGWARGLISTGRV [compound 12]	62
